cAMP assay: Efficacy GIPR reference
- target.or.test.system: T1, human GIPR (glucose-dependent insulinotropic polypeptide receptor) (human, UniProt P48546 22-466)
- T1 sequence (looked up): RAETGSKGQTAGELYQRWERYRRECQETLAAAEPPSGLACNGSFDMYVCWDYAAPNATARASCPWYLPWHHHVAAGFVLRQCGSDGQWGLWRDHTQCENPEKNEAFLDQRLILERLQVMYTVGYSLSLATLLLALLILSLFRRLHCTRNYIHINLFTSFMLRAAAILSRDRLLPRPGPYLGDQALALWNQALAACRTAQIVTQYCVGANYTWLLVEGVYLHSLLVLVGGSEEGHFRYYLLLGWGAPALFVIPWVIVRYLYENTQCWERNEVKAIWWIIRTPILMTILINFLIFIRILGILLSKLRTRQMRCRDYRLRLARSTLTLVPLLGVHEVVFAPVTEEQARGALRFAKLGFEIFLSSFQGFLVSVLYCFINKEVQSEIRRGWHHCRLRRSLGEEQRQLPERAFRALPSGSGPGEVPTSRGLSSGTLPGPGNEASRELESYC
- protocol.details: cell-based or functional assay
*1 amine or outer side, *2 acyl side, *3 side chain or, on linkers, in order; H or OH if unused. Where no end group is shown, it is not given here. Side-chain parts run from the residue outwards. [ ]: non-standard residue; d: D form. The star is where a group is joined. γGlu = O=C(O)[C@H](CCC(=O)[*:2])N[*:1]; Palmitoyl = CCCCCCCCCCCCCCCC(=O)*; Decanoyl = CCCCCCCCCC(=O)*; Aib = CC(C)(N)C(=O)O
Reply numerically in %, unit not repeated.

Worked cases, cAMP assay: Efficacy GIPR given:
[[record]]
binder = "Palmitoyl-HADGTFISDYSTILDNLAARDFIEWLIQTKITKNDWKHNITQ [Compound no. 50]"
value = 101

[[record]]
binder = "Palmitoyl-HADGTFISDYSTILDELAARDFINWLIQTKITKNDWKHNITQ [Compound no. 48]"
value = 112

[[record]]
binder = "Palmitoyl-HADGTFISDYSTILDNLAARDFINWLIETKITKNDWKHNITQ [Compound no. 51]"
value = 104

[[record]]
binder = "HADGTFISDYSTILDKLAARDFINWLIQTK(C16 fatty acid)ITK [Compound no. 57]"
value = 97


Ask | Return reported cAMP assay: Efficacy GIPR; argument: H[Aib]DGTFISDYK([γGlu-Decanoyl])T[Aib]LDNLAARDFINWLIQTKITGNDWKHNITQ-OH [Compound no. 54]
Reply | 86

Ask | Moving on to Palmitoyl-HADGTFISDYST[Aib]LDNLAARDFINWLIQTKITKNDWKHNITQ [Compound no. 53]
Reply | 90
